test system: SW-620 colon; assay: NCI tumour cell line growth inhibition, 48 h
PROPERTY NAME: TGI

[
  {
    "COMPOUND": "CCN(/N=C1\\CC2C=CCN(C2)C(=O)Cc2c1[nH]c1ccccc21)S(=O)(=O)c1ccc(C)cc1 (stereo not drawn)",
    "RESULT VALUE": "> 100 µM"
  },
  {
    "COMPOUND": "S=C(S)NCCN1CCNCC1",
    "RESULT VALUE": "> 100 µM"
  },
  {
    "COMPOUND": "COC(=O)C1=CCC2c3[nH]c4ccccc4c3CCN2C1 (stereo not drawn)",
    "RESULT VALUE": "> 354 µM"
  },
  {
    "COMPOUND": "N#CCCN(c1ccc(C=O)cc1)S(=O)(=O)c1ccccc1",
    "RESULT VALUE": "> 100 µM"
  },
  {
    "COMPOUND": "Cn1c(=O)c(Oc2ccc(F)cc2F)cc2cnc(NCC(C)(C)O)nc21",
    "RESULT VALUE": "> 25 µM"
  },
  {
    "COMPOUND": "Clc1ccccc1C1SCc2nc3ccccc3n21 (stereo not drawn)",
    "RESULT VALUE": "> 100 µM"
  },
  {
    "COMPOUND": "CN(/N=C/C=N/N(C)C1=NCCN1)C1=NCCN1",
    "RESULT VALUE": "> 100 µM"
  },
  {
    "COMPOUND": "COc1cc(C)[nH]c(=O)c1CNC(=O)c1c(C)n([C@H](C)C2CCN(CC(F)(F)F)CC2)c2ccccc12",
    "RESULT VALUE": "> 100 µM"
  },
  {
    "COMPOUND": "COC1C(=O)CCC2(CO2)C1(O)C1(C)OC1CC=C(C)C (stereo not drawn)",
    "RESULT VALUE": "> 100 µM"
  },
  {
    "COMPOUND": "COc1ccc([C@@H]2OC(=O)C3C2C(=O)O[C@H]3c2ccc(OC)cc2)cc1 (stereo partly drawn)",
    "RESULT VALUE": "> 100 µM"
  },
  {
    "COMPOUND": "Cn1c(=O)n(C2(C)CSC2)c2ccccc21",
    "RESULT VALUE": "> 100 µM"
  },
  {
    "COMPOUND": "CN(C)CCCCNc1ccc(NCCCCN(C)C)c2c1C(=O)c1c(O)ccc(O)c1C2=O",
    "RESULT VALUE": "2.83 µM"
  },
  {
    "COMPOUND": "Cn1c(=S)[nH]c(N)c(Cc2ccccc2)c1=O",
    "RESULT VALUE": "> 100 µM"
  },
  {
    "COMPOUND": "CN(C)C1CN(C(=O)c2cc(-c3ccc4ncnc(N5CCc6cc(F)c(Cl)cc65)c4c3)cnc2N)C1",
    "RESULT VALUE": "> 100 µM"
  },
  {
    "COMPOUND": "COc1cc(C2CC(c3cccc(Nc4ccnc5cc(Cl)ccc45)c3)=NN2c2ccccc2)cc(OC)c1OC (stereo not drawn)",
    "RESULT VALUE": "> 100 µM"
  },
  {
    "COMPOUND": "O=C(NC(OCc1ccccc1)(C(F)(F)F)C(F)(F)F)OCc1ccccc1",
    "RESULT VALUE": "31.1 µM"
  },
  {
    "COMPOUND": "CC(=O)Nc1ccc(C2=N/C(=C\\c3ccc(Cl)cc3)C(=O)O2)cc1",
    "RESULT VALUE": "22.8 µM"
  },
  {
    "COMPOUND": "CC(=O)O[C@@H]1CC[C@@]2(C)C(=O)C34C[C@@]5(C)C([C@@H](C)CCCC(C)C)CCC5(C)[C@](O)(O3)C(=O)[C@H]4C2C1(C)C (stereo partly drawn)",
    "RESULT VALUE": "24.5 µM"
  },
  {
    "COMPOUND": "C=C(C)COc1cc(NC(=S)OC(C)C)ccc1Cl",
    "RESULT VALUE": "27.6 µM"
  },
  {
    "COMPOUND": "c1ccc2c(c1)-c1ccccc1C2NC1=NCCO1",
    "RESULT VALUE": "> 100 µM"
  },
  {
    "COMPOUND": "Cn1c(=O)c2c(=O)cc(N)[nH]c2n(C)c1=O",
    "RESULT VALUE": "> 100 µM"
  },
  {
    "COMPOUND": "Cc1cnc(-c2ccc(-c3ccc(NC(=O)Nc4c(F)cc(F)cc4F)cc3F)c3c2C(=O)NC3)[nH]1",
    "RESULT VALUE": "2.19 µM"
  },
  {
    "COMPOUND": "NS(=O)(=O)c1ccc(NC(=O)c2ccc3nc4ccccc4c(Nc4ccc(S(N)(=O)=O)cc4)c3c2)cc1",
    "RESULT VALUE": "> 100 µM"
  }
]

---

system: MCF7 breast; assay: NCI tumour cell line growth inhibition, 48 h
Reported TGI values for a set of compounds

[
  {
    "COMPOUND": "CC(C)c1c(O[Si](C(C)C)(C(C)C)C(C)C)cc2c(c1O)CC[C@H]1C(C)(C)CCC[C@]21C",
    "TGI": "> 100 µM"
  },
  {
    "COMPOUND": "O=c1/c(=C\\c2ccc(Br)cc2)sc2n1C(c1ccc(Br)cc1)C1=C(N=2)c2ccc3ccccc3c2OCC1 (stereo not drawn)",
    "TGI": "> 100 µM"
  },
  {
    "COMPOUND": "CN(C)NC1=NS(=O)(=O)c2cc3c(=O)n(C)[nH]c3cc2S1",
    "TGI": "> 10 µM"
  },
  {
    "COMPOUND": "CC(C)CC1N=C(OCc2ccccc2)OC1=O (stereo not drawn)",
    "TGI": "> 100 µM"
  },
  {
    "COMPOUND": "[O-][N+]1=C2CCC/C(=N/O)C2(O)C2CCCCC21N1CCOCC1 (stereo not drawn)",
    "TGI": "> 100 µM"
  },
  {
    "COMPOUND": "COc1cc(C(=O)NN=C2c3ccccc3-c3ccccc32)cc(OC)c1OC",
    "TGI": "> 100 µM"
  },
  {
    "COMPOUND": "CON[N+]([O-])=NC(C)C",
    "TGI": "> 100 µM"
  },
  {
    "COMPOUND": "C=CCOCn1cnc2c(=O)[nH]c(N)nc21",
    "TGI": "> 100 µM"
  },
  {
    "COMPOUND": "COc1cc(OC)c(/C=N\\Nc2nc3ccccc3c(=O)n2-c2ccccc2)c(OC)c1",
    "TGI": "> 73.8 µM"
  },
  {
    "COMPOUND": "C[C@@H](c1ccccc1)N1CO[C@@]2(C#Cc3ccc4c(c3)OCO4)CCC[C@@H]12",
    "TGI": "> 100 µM"
  },
  {
    "COMPOUND": "Cn1c(=S)[nH]c(N)c(Cc2ccccc2)c1=O",
    "TGI": "> 100 µM"
  },
  {
    "COMPOUND": "O=C1N[C@H](C(=O)O)[C@@H](c2ccc(OCc3ccccc3)cc2)O1",
    "TGI": "> 100 µM"
  },
  {
    "COMPOUND": "COc1cc(C)[nH]c(=O)c1CNC(=O)c1c(C)n([C@H](C)C2CCN(CC(F)(F)F)CC2)c2ccccc12",
    "TGI": "> 100 µM"
  }
]

---

system: BT-549 breast; assay: NCI tumour cell line growth inhibition, 48 h

[
  {
    "MOLECULE": "COc1cc(C(c2ccc3c(c2)OCO3)C2SCCCS2)cc(OC)c1OC (stereo not drawn)",
    "TGI": "> 100 µM"
  },
  {
    "MOLECULE": "COC1C(=O)CCC2(CO2)C1(O)C1(C)OC1CC=C(C)C (stereo not drawn)",
    "TGI": "> 100 µM"
  },
  {
    "MOLECULE": "CCc1ncc(CO)n1Cc1cccc2ccccc12",
    "TGI": "> 100 µM"
  }
]

---

system: SNB-75 CNS; test: NCI tumour cell line growth inhibition, 48 h

[
  {
    "COMPOUND": "N#Cc1cccc(C2C(=O)c3ccc(C(=O)c4ccc5c(c4)C(=O)N(c4ccc(Oc6ccc(N7C(=O)c8ccc(C(=O)c9ccc%10c(c9)C(=O)N(c9cccc(C#N)c9)C%10=O)cc8C7=O)cc6)cc4)C5=O)cc3C2=O)c1 (stereo unspecified)",
    "TGI": "> 100 µM"
  },
  {
    "COMPOUND": "N#CCCN(c1ccc(C=O)cc1)S(=O)(=O)c1ccccc1",
    "TGI": "> 100 µM"
  },
  {
    "COMPOUND": "CC1=CC[C@@H](C(C)(C)O)C[C@@H]1O",
    "TGI": "> 5000 µM"
  },
  {
    "COMPOUND": "O=C1CCC2COc3ccc(O)c1c32 (stereo unspecified)",
    "TGI": "> 100 µM"
  },
  {
    "COMPOUND": "CC/C=C\\C=C/C(=O)N/C=C/CCC",
    "TGI": "> 100 µM"
  },
  {
    "COMPOUND": "O=C(NN1C(=O)CSC1c1c(Cl)cccc1Cl)C(O)c1ccccc1 (stereo unspecified)",
    "TGI": "> 100 µM"
  },
  {
    "COMPOUND": "COc1ccc(C=O)cc1OS(=O)(=O)C(F)(F)C(F)(F)C(F)(F)C(F)(F)F",
    "TGI": "> 90.4 µM"
  },
  {
    "COMPOUND": "C=C(C)CCC(O)[C@](C)(O)[C@H]1[C@H](O)C[C@@]2(C)[C@@H]3CCc4c(cc(OC5OC(CO)C(O)C(O)C5O)c(O)c4C)C3(C)C(=O)C[C@]12C (stereo partly specified)",
    "TGI": "> 100 µM"
  },
  {
    "COMPOUND": "C=CCOCn1cnc2c(=O)[nH]c(N)nc21",
    "TGI": "> 100 µM"
  },
  {
    "COMPOUND": "COc1ccc(/C=C\\c2cc(OC)c(OC)c(OC)c2)c(NS(=O)(=O)c2ccc(F)cc2)c1O",
    "TGI": "> 100 µM"
  },
  {
    "COMPOUND": "CC(C)CC1N=C(OCc2ccccc2)OC1=O (stereo unspecified)",
    "TGI": "> 100 µM"
  }
]
